As shown below, each of these compounds has a reported TIMS collisional cross section value.
- METHOD DESCRIPTION: TIMS collisional cross section (CCS, N2) of the lipid ion; higher = larger ion cross section
- CONDITION CONTEXT: sample type: HeLa; ionization mode: positive; one isomer drawn
Kindly answer with a numeric value in Å², unit omitted.

# TIMS collisional cross section (compound: CCCCCCCCCCCCCCCCCC(=O)OC[C@@H](O)COP(=O)(O)O[C@H]1C(O)C(O)C(O)[C@@H](O)C1O (stereo not given in full) [LPI 18:0] (ion (formula + adduct): [C27H53O12P+H] 1+) ) is 248.8

###

As shown below, each of these compounds has a reported TIMS collisional cross section value.
- METHOD DESCRIPTION: TIMS collisional cross section (CCS, N2) of the lipid ion; higher = larger ion cross section
- CONDITION CONTEXT: sample type: plasma; ionization mode: positive; one isomer drawn
Kindly answer with a numeric value in Å², unit omitted.

COMPOUND | READOUT TYPE | MEASUREMENT UNIT | VALUE REPORTED
CCCCCCCC/C=C\CCCCCCCC(=O)OC[C@@H](COC(=O)CCCCCCCCCCCC)OC(=O)CCCCCCCCCCCCCCC [TG 13:0_16:0_18:1] (ion (formula + adduct): [C50H94O6+NH4] 1+) | TIMS collisional cross section | Å² | 309.5

// next entry
# TIMS collisional cross section (compound: CC/C=C\C/C=C\C/C=C\C/C=C\C/C=C\C/C=C\CCC(=O)O[C@H](COCCCCCCCCCCCCCCCCCCCC)COP(=O)([O-])OCC[N+](C)(C)C [PC O- 20:0@_22:6] (ion (formula + adduct): [C50H90NO7P+H] 1+) ) is 304.9

The measurements presented in this section are drawn from the supplement of paper PMC6965134.
